test system: IL-10; experiment: Measurement of IL-10 increase rate (LPS-induced inflammation in mice, serum IL-10 by ELISA); format: in vivo; settings: Mus musculus, 2 h, oral 100 mg/kg in 0.5% methyl cellulose, LPS 0.4 mg/kg i.p. one hour later, serum taken one hour after LPS, % control ratio vs 0.5% methyl cellulose group, read-out: IL10 Increase Rate (%)
READOUT_LABEL: response vs control in vivo at 100 mg/kg
Your reply should be a number followed by the unit it is expressed in.

CC(C)c1cccc(O[C@H](C)c2nnc([C@H]3CC[C@H](n4cc([C@@H]5CC[C@@H](N(C)C)CO5)nn4)CC3)n2C)c1: 197%

I would be grateful if you could share the reported response vs control in vivo at 100 mg/kg for Cn1c(COC2CCCC(C(F)(F)F)C2)nnc1[C@H]1CC[C@H](c2cnn([C@H]3CC[C@H](N4CC5(CCOC5)C4)CC3)c2)CC1 (stereo partly shown) .
202%

I would be grateful if you could share the reported response vs control in vivo at 100 mg/kg for CN1CCC(F)(c2cn([C@H]3CC[C@H](c4nnc(COc5ccc(Cl)c(C(F)(F)F)c5)n4C)CC3)nn2)CC1 .
206%

I would be grateful if you could share the reported response vs control in vivo at 100 mg/kg for CN1CCC(c2nnc(-c3ccc(-c4nnc(COc5cccc(C(F)(F)F)c5)n4C)cc3)o2)CC1 .
202%

----------
system: IL-10; assay: Measurement of IL-10 increase rate (LPS-induced inflammation in mice, serum IL-10 by ELISA); assay type: in vivo; details: Mus musculus, 2 h, oral 100 mg/kg in 0.5% methyl cellulose, LPS 0.4 mg/kg i.p. one hour later, serum taken one hour after LPS, % control ratio vs 0.5% methyl cellulose group, read-out: IL10 Increase Rate (%)
READOUT_LABEL: response vs control in vivo at 100 mg/kg (%)
Give just the numeric value; % need not be written.

Cn1c(COc2cccc(C(F)(F)F)c2)nnc1[C@H]1CC[C@H](c2cnn([C@H]3CC[C@H](N4CCC4)CC3)c2)CC1 [Example 21]: 312
CC(C)c1cccc(OCc2nnc([C@@H]3CC[C@@H](n4cc(C5(F)CCN(C)CC5)nn4)CO3)n2C)c1 [Example 13]: 156
Cn1c(CCn2cccc(C(F)(F)F)c2=O)nnc1[C@H]1CC[C@H](c2cnn([C@H]3CC[C@H](N4CC5(CCOC5)C4)CC3)c2)CC1 [Example 33]: 144
CC(C)c1cccc(OCc2nnc(-c3ccc(-n4cc(C5CCN(C)CC5)nn4)cn3)n2C)c1 [Example 2]: 220
CC(C)c1cccc(OCc2nnc([C@H]3CC[C@H](n4cc(-c5ccc([C@@H](C)N6CCC6)cc5)nn4)CC3)n2C)c1 [Example 6]: 243

Query molecule follows.
I would be grateful if you could share the reported response vs control in vivo at 100 mg/kg for Cn1c(COc2cc(C(F)(F)F)ccn2)nnc1[C@H]1CC[C@H](c2cnn([C@H]3CC[C@H](N4CC5(CCO5)C4)CC3)c2)CC1 [Example 25] .
216
